- Test system: Staphylococcus aureus MW2 delta-mecA (mecA-)
- Assay Remarks: normalized GFP fluorescence (growth of mecA- strain) (fraction of control range); higher = more growth of mecA- strain
- Condition Set: compound concentration: 150 uM; cefoxitin: subinhibitory; fluorescent label: GFP
Property Name: normalized GFP fluorescence
Returns: the value as a bare number; no unit string appended.

Form: Entry = CC(=O)O[C@H]1C[C@H](O[C@H]2[C@@H](O)C[C@H](O[C@H]3[C@@H](O)C[C@H](O[C@H]4CC[C@@]5(C)[C@H](CC[C@@H]6[C@@H]5C[C@@H](O)[C@]5(C)[C@@H](C7=CC(=O)OC7)CC[C@]65O)C4)O[C@@H]3C)O[C@@H]2C)O[C@H](C)[C@H]1O[C@@H]1O[C@H](CO)[C@@H](O)[C@H](O)[C@H]1O | System = Staphylococcus aureus MW2 delta-mecA (mecA-) | normalized GFP fluorescence = ____
0.391

Form: Entry = CC(C)C[C@H](CN)CC(=O)O | System = Staphylococcus aureus MW2 delta-mecA (mecA-) | normalized GFP fluorescence = ____
0.412

Form: Entry = O=P1(NCCCl)OCCCN1CCCl (stereo not drawn) | System = Staphylococcus aureus MW2 delta-mecA (mecA-) | normalized GFP fluorescence = ____
0.399

----------
Please provide measured normalized DsRed fluorescence for the entries that follow.
- Tested on: Staphylococcus aureus MW2 (mecA+)
- Assay Remarks: normalized DsRed fluorescence (growth of mecA+ strain) (fraction of control range); higher = more growth of mecA+ strain
- Condition Set: compound concentration: 150 uM; cefoxitin: subinhibitory; fluorescent label: DsRed
Returns: the value as a bare number; no unit string appended.

Given CC(NC(C)(C)C)C(=O)c1cccc(Cl)c1 (stereo not drawn) [Amfebutamone (Bupropion)] , state its recorded normalized DsRed fluorescence.
0.602

Given N[C@@H](Cc1ccc(N(CCCl)CCCl)cc1)C(=O)O , state its recorded normalized DsRed fluorescence.
0.612

Given Oc1ccc2c3c1O[C@H]1[C@@H](O)CC[C@@]4(O)[C@@H](C2)N(CC2CCC2)CC[C@]314 , state its recorded normalized DsRed fluorescence.
0.715

----------
- Test system: Staphylococcus aureus MW2 (mecA+)
- Assay Remarks: normalized DsRed fluorescence (growth of mecA+ strain) (fraction of control range); higher = more growth of mecA+ strain
- Condition Set: compound concentration: 150 uM; cefoxitin: subinhibitory; fluorescent label: DsRed
Property Name: normalized DsRed fluorescence
Returns: the value as a bare number; no unit string appended.

Given O=P1(NCCCl)OCCCN1CCCl (centres undefined) , state its recorded normalized DsRed fluorescence.
0.711

Given CC1(C)C(C=C(Cl)Cl)C1C(=O)OCc1cccc(Oc2ccccc2)c1 (centres undefined) , state its recorded normalized DsRed fluorescence.
0.704

Given C[C@]12CCC(=O)C(O)=C1CC[C@@H]1[C@@H]2CC[C@]2(C)C(=O)CC[C@@H]12 [Formestane] , state its recorded normalized DsRed fluorescence.
0.7

Given N[C@@H]1C[C@H]1c1ccccc1.N[C@H]1C[C@@H]1c1ccccc1 , state its recorded normalized DsRed fluorescence.
0.701
